Test system: platelet aggregation in response to collagen (human platelet-rich plasma)
Experiment: Inhibition of collagen-induced platelet aggregation in vitro (human platelet-rich plasma, photometric aggregometer)
Type: cell-based
Conditions: 0.05 h, final concentration 100 μM, human PRP, 37°, 3 min incubation before collagen, just-maximal collagen dose, read-out: % Inhibition of the platelet aggregation response to collagen
Structures can show the parent of a compound that is named as a salt.
property_name: inhibition at 100 µM (%)
The reply should contain only the number, in %.

# input Entry O=c1c2cc(Cl)ccc2sn1CCc1ccccn1 [Example 1, hydrochloride] has what inhibition at 100 µM?
# output 100

# input Can you check O=c1c2cc(Cl)c(Cl)cc2sn1CCN1CC2CCC(CC2)C1 [Example 14] next?
# output 100

# input Another compound: O=c1c2ccccc2sn1N1CCOCC1 [Example 5, 2-(morpholino)-1,2-benzisothiazol-3-one]
# output 100

# input Entry to check: O=c1c2ccccc2sn1CCN1CCCCCC1 [Example 19, hydrochloride]
# output 92

# input Try this compound too: O=c1c2ccccc2sn1CCN1CCc2ccccc2C1 [Example 20, hydrochloride]
# output 100

Data provenance is patent US4350702A.
